- EXPERIMENTAL DETAILS: Selectivity index, ratio of CC50 for human ARPE-19 cells to EC50 for VZV infected human ARPE-19 cells
- Format: toxicity
- EXPERIMENTAL CONDITIONS: VZV infected ARPE-19 cells, read-out: Selectivity Index
PROPERTY: selectivity ratio

Here are 3 molecules together with their reported answers.
MOLECULE	PROPERTY	OBSERVED MEASUREMENT
CC(C)(N)C(=O)OC[C@H]1OC[C@@H](n2cc(/C=C/Br)c(=O)[nH]c2=O)O1	selectivity ratio	> 2600
CC(C)[C@H](N)C(=O)OC[C@H]1OC[C@@H](n2cc(/C=C/Br)c(=O)[nH]c2=O)O1	selectivity ratio	> 709
NC(=O)CC[C@H](N)C(=O)OC[C@H]1OC[C@@H](n2cc(/C=C/Br)c(=O)[nH]c2=O)O1	selectivity ratio	> 794

Please examine the following record next.
[Q] Recorded selectivity ratio of CCCCCCCCCCCCCCCCOCCCOP(=O)(OC[C@H]1OC[C@@H](n2cc(/C=C/Br)c(=O)[nH]c2=O)O1)Oc1ccccc1 (some centres undefined) , please.
[A] 35
